B1: PCDHGA10 (parent)
chain: FHELQMQVTASDSGDPPLSSNVSL

- Variants of: B1
- assay comment: protein stability index of a GFP-peptide fusion (GPS, HEK-293T) (PSI 1-6); higher = more stable;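 also: lentivirally expressed fusions sorted by FACS into six bins by GFP to DsRed ratio, PSI derived from sequencing read proportions per bin multiplied by bin number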
- protocol conditions: c terminus: a fixed tail appended
Below: a set of entries, each annotated with reported protein stability index.

>  <var>
L4T

>  <protein stability index>
2.97

$$$$
>  <var>
L4I

>  <protein stability index>
2.28

$$$$
>  <var>
S11T

>  <protein stability index>
2.4

$$$$
>  <var>
S13G

>  <protein stability index>
2.33

$$$$
>  <var>
D12C

>  <protein stability index>
1.98

$$$$
>  <var>
P16H

>  <protein stability index>
2.1

$$$$
>  <var>
Q5H

>  <protein stability index>
2.44

$$$$
>  <var>
P16D

>  <protein stability index>
2.49

$$$$
>  <var>
S13F

>  <protein stability index>
1.52

$$$$
>  <var>
S19V

>  <protein stability index>
1.57

$$$$
>  <var>
V8K

>  <protein stability index>
3.06

$$$$
>  <var>
Q5A

>  <protein stability index>
2.26

$$$$
>  <var>
Q5K

>  <protein stability index>
2.13

$$$$
>  <var>
V8I

>  <protein stability index>
2.29

$$$$
>  <var>
N21R

>  <protein stability index>
1.91

$$$$
>  <var>
P16Q

>  <protein stability index>
2.08

$$$$
>  <var>
E3M

>  <protein stability index>
2.31

$$$$
>  <var>
S20F

>  <protein stability index>
2.69

$$$$
>  <var>
L18H

>  <protein stability index>
3.04

$$$$
>  <var>
H2P

>  <protein stability index>
3.99

$$$$
>  <var>
S20P

>  <protein stability index>
2.54

$$$$
>  <var>
G14T

>  <protein stability index>
2.31

$$$$
>  <var>
A10K

>  <protein stability index>
2.41

$$$$
>  <var>
D15H

>  <protein stability index>
1.88

$$$$
>  <var>
V22G

>  <protein stability index>
2.72

$$$$
>  <var>
L4N

>  <protein stability index>
3.6

$$$$
>  <var>
M6Y

>  <protein stability index>
2.46

$$$$
>  <var>
G14W

>  <protein stability index>
2.11

$$$$
>  <var>
F1L

>  <protein stability index>
4.5

$$$$
>  <var>
V22K

>  <protein stability index>
2.84

$$$$
>  <var>
P17M

>  <protein stability index>
2.38

$$$$
